target: GABA-A receptor; anion channel; assay: Displacement of [3H]flunitrazepam from rat brain GABAA ion channel after 60 mins by scintillation counting analysis
experimental-endpoint: EC50

Task: # query: EC50 of entry O=C(Nc1ccc(OC(F)F)nc1)NC1CCN(c2ncnc3c2nc(-c2ccccc2Cl)n3-c2ccc(Cl)cc2)CC1
Result: > 10 µM

----------
biological target: Beta-1 adrenergic receptor (Homo sapiens); experiment: Displacement of [3H](-)CGP12177 from recombinant human beta1 adrenergic receptor after 60 mins by scintillation counting analysis
Sequence (P08588 whole entry): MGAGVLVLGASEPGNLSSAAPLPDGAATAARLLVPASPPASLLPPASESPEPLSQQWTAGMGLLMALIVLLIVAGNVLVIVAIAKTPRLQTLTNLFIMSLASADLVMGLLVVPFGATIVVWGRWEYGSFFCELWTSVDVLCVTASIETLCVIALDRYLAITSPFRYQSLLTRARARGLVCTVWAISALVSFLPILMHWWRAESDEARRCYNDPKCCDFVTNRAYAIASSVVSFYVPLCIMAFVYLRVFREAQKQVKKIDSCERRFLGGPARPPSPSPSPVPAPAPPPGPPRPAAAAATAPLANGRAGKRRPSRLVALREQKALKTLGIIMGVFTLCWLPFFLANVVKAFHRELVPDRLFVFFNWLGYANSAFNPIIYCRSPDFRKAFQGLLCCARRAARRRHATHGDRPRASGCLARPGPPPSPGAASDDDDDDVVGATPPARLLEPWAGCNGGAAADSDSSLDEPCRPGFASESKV
pEC50: −log10 of the molar value.
experimental-endpoint: pEC50

Task: # query: pEC50 of entry O=C(Nc1ccc(OC(F)F)nc1)NC1CCN(c2ncnc3c2nc(-c2ccccc2Cl)n3-c2ccc(Cl)cc2)CC1
Result: < 5.00
